- System: HOP-62
- procedure details: NCI tumour cell line growth inhibition, 48 h
The source made the active and inactive calls. Cut-off read from the data, not from the text of the source: active = GI50 up to about 1.1 µM and inactive = higher.
measure name: GI50

For record `O=C(CSC1=NCCN1)Nc1ccccc1` the listed GI50 is 48 µM (inactive)

Given item `Cc1ccc(/N=N/NCCCCN/N=N/c2ccc(C)cc2)cc1` , the value recorded as its GI50 is 47.9 µM (inactive)

Record summary for `CN(C)CCNC(=O)c1cccc2nc3c(Cl)cccc3nc12` : reported GI50 = 5.66 µM (inactive)

Quick note, GI50 for `CN(C)S(=O)(=O)Nc1nnc(S(N)(=O)=O)s1` landed at > 100 µM (inactive)

The reported GI50 of the compound CC1(C)CCC[C@@]2(C)C1C(=O)[C@@H]1O[C@]1(C)[C@@H]2CO (stereo partly specified) was 40.2 µM (inactive)

According to the records, this compound `NCc1c(C(N)=O)ncn1Cc1ccccc1` displays GI50 of > 100 µM (inactive)

GI50 reported for this compound `c1cc2c(cc1NC1=NCCO1)CCCC2` : 2.67 µM (inactive)

Query `O=C(/C=C\c1cccc2ccccc12)c1ccc(Cl)cc1Cl` yields GI50 of > 100 µM (inactive)

Per the records, this compound ( `CCOC(=O)NC(=O)c1cn(CCN2CCN(C(=O)CCCCCCCCCCNc3ncnc4[nH]cnc34)CC2)c(=O)[nH]c1=O` ) has GI50 equal to > 100 µM (inactive)

GI50 in this record for Clc1ccc2c(c1)-c1c3c(nn1-c1ccccc1)-c1ccccc1SC3O2 (stereo unspecified) : > 100 µM (inactive)

Memo: C=C(C)C(=O)O[C@H]1CC2(CO)O[C@@H]2CC/C(COC(C)=O)=C/C2OC(=O)C(=C)[C@@H]21 (stereo partly specified) , reported GI50: > 100 µM (inactive)

====

Could you please report measured GI50 for the items listed next?
- Test system: PC-3
- procedure details: NCI tumour cell line growth inhibition, 48 h
Calls of active or inactive are those of the source. Rule as the data show it: active = GI50 up to about 1.1 µM and inactive = higher.

Entry `CN(C)S(=O)(=O)Nc1nnc(S(N)(=O)=O)s1` — recorded GI50 = > 100 µM (inactive)

`CO[C@@H]1C[C@H]2[C@@H]3CC[C@H]([C@H](C)COC(C)=O)[C@@]3(C)CC[C@@H]2[C@@]2(C)CC[C@H]3C[C@]312` has a reported GI50 of > 100 µM (inactive)

Record summary for OC(c1ccc(F)cc1)C(F)(F)c1nc(-c2ccccc2)no1 (stereo not given) : reported GI50 = 21.8 µM (inactive)

Query `CCOC(=O)c1c(O)cc(=O)[nH]c1N1CCOCC1` yields GI50 of > 100 µM (inactive)

Sure, the documented GI50 for `O=C1N[C@@H](c2c[nH]c3ccc(Br)cc23)C(=O)N[C@H]1c1c[nH]c2ccc(Br)cc12` is 3.6 µM (inactive)

GI50 in this record for `Oc1ccc2c(c1)-c1c(c3cc(O)ccc3n1CCN1CCOCC1)CC2` : 18.4 µM (inactive)

Record summary for `O=C(c1cccs1)N(C(=O)N1CCCCC1)c1ccccc1` : reported GI50 = 52.1 µM (inactive)

Reported GI50 of CC(=O)CC(O)(C(F)(F)Cl)C(F)(Cl)Cl (stereo not given) : > 10 µM (inactive)

Noted for O=C1C[C@@H](Sc2ccccc2)C2(OCCO2)C2ON3CCCC[C@H]3[C@H]12 (stereo not given in full) : its GI50 reads 7.36 µM (inactive)

# GI50 (compound: `COC(=O)c1c(C)[n+]([O-])c2cc(Cl)c(Cl)cc2[n+]1[O-]` ) is 22.4 µM (inactive)

The measured values listed here are drawn from ChEMBL document CHEMBL1201862.
